B1: glmS ribozyme (parent)
chain: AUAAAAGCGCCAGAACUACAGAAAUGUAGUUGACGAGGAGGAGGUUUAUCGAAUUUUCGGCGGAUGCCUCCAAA

variants of: B1; test: self-cleavage kobs at 160 uM GlcN6P; higher = faster cleavage; RNA array; conditions: with glucosamine-6-phosphate
This sample holds only a part of the variants without activity.
Property label: self-cleavage kobs at 160 uM GlcN6P

U57G C70G; 0.00016 s⁻¹

Problem: Can you share its self-cleavage kobs at 160 uM GlcN6P? I mean this variant: C34A
Solution: < 1e-05 s⁻¹

Problem: Can you share its self-cleavage kobs at 160 uM GlcN6P? I mean this variant: A36C U49A C70U
Solution: 4.96e-05 s⁻¹

Problem: Can you share its self-cleavage kobs at 160 uM GlcN6P? I mean this variant: C16G A42U
Solution: < 1e-05 s⁻¹

Problem: Can you share its self-cleavage kobs at 160 uM GlcN6P? I mean this variant: U30G A53U
Solution: 0.000465 s⁻¹

Problem: Can you share its self-cleavage kobs at 160 uM GlcN6P? I mean this variant: G13U G35C A64U
Solution: < 1e-05 s⁻¹

Problem: Can you share its self-cleavage kobs at 160 uM GlcN6P? I mean this variant: C10G U47A
Solution: < 1e-05 s⁻¹

Problem: Can you share its self-cleavage kobs at 160 uM GlcN6P? I mean this variant: C11A C16A
Solution: < 1e-05 s⁻¹

Problem: Can you share its self-cleavage kobs at 160 uM GlcN6P? I mean this variant: G9A G41U
Solution: < 1e-05 s⁻¹

Problem: Can you share its self-cleavage kobs at 160 uM GlcN6P? I mean this variant: G9C G29U
Solution: < 1e-05 s⁻¹

Problem: Can you share its self-cleavage kobs at 160 uM GlcN6P? I mean this variant: U30G U54C
Solution: 0.000617 s⁻¹

Problem: Can you share its self-cleavage kobs at 160 uM GlcN6P? I mean this variant: G29U C34A
Solution: < 1e-05 s⁻¹

Problem: Can you share its self-cleavage kobs at 160 uM GlcN6P? I mean this variant: G9A C16U G41A A48U
Solution: < 1e-05 s⁻¹

Problem: Can you share its self-cleavage kobs at 160 uM GlcN6P? I mean this variant: G9U G32C G35C A64G
Solution: < 1e-05 s⁻¹

Problem: Can you share its self-cleavage kobs at 160 uM GlcN6P? I mean this variant: C16A C67A
Solution: 6.97e-05 s⁻¹

Problem: Can you share its self-cleavage kobs at 160 uM GlcN6P? I mean this variant: C11U U55A
Solution: 0.000177 s⁻¹

Problem: Can you share its self-cleavage kobs at 160 uM GlcN6P? I mean this variant: G9A
Solution: < 1e-05 s⁻¹

Problem: Can you share its self-cleavage kobs at 160 uM GlcN6P? I mean this variant: U30A U54A C67U C68A
Solution: 3.56e-05 s⁻¹

Problem: Can you share its self-cleavage kobs at 160 uM GlcN6P? I mean this variant: A12G G63C
Solution: < 1e-05 s⁻¹

Problem: Can you share its self-cleavage kobs at 160 uM GlcN6P? I mean this variant: C50G C70G
Solution: 0.000142 s⁻¹

Problem: Can you share its self-cleavage kobs at 160 uM GlcN6P? I mean this variant: G40U U45A U56G
Solution: 6.56e-05 s⁻¹

Problem: Can you share its self-cleavage kobs at 160 uM GlcN6P? I mean this variant: A39U G51U C67U
Solution: < 1e-05 s⁻¹
